IC50 for assorted compounds
- study-target: CCR2 (Homo sapiens (Human), UniProt P41597)
- Sequence (P41597 other isoform, or with tags, fused parts or gaps isoform P41597-2): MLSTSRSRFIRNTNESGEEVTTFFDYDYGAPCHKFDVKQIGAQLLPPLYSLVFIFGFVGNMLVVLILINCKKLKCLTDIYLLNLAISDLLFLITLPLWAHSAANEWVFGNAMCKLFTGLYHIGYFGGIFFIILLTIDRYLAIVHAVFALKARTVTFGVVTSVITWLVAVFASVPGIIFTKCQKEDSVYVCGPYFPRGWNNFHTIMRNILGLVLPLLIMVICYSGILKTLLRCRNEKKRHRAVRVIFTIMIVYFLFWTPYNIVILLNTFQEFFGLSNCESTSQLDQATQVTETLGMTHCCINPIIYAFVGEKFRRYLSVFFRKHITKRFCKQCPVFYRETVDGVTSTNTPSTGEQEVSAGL
- measurement-protocol: MCP-1 Receptor Binding Assay in THP-1 Cells
- study-conditions: 0.5 nM 125I labeled MCP-1, 2 hours at 30° C., average of the two most similar values where more than one IC50, read-out: Inhibition of MCP-1 Binding IC50 CCR2 Binding
Counter-ions that a name gives are not always drawn.
measure: IC50 (nM)

INSERT INTO assay_data (compound, measure, test_result) VALUES
  ('COC(=O)C(NC1CCC(c2c[nH]c3ccccc23)CC1)C1CCN(C(=O)/C=C/c2cc(F)c(F)c(F)c2)CC1 (centres unmarked) [Example 49a]', 'IC50', 410),
  ('COC(=O)C(NC1CCC(c2c[nH]c3ccccc23)CC1)C1CCN(C(=O)/C=C/c2cc(F)c(F)c(F)c2)CC1 (centres unmarked) [Example 49b]', 'IC50', 750),
  ('CN(C)C(=O)C(NC1CCC(c2c[nH]c3ccccc23)CC1)C1CCN(C(=O)/C=C/c2cc(F)c(F)c(F)c2)CC1 (centres unmarked) [Example 54]', 'IC50', 981),
  ('NC(=O)C(NC1CCC(c2c[nH]c3ccccc23)CC1)C1CCN(C(=O)Nc2ccc(OC(F)(F)F)cc2)CC1 (centres unmarked) [Example 11]', 'IC50', 264),
  ('O=C(O)C(N[C@H]1CC[C@H](c2c[nH]c3ccccc32)CC1)C1CCN(C(=O)Nc2ccc(Cl)c(Cl)c2)CC1 (some centres unmarked) [Example 27, hydrochloride]', 'IC50', 230),
  ('NC(=O)C(NC1CCC(c2c[nH]c3ccccc23)CC1)C1CCN(C(=O)/C=C/c2ccc(Cl)cc2)CC1 (centres unmarked) [Example 14]', 'IC50', 130),
  ('Cc1cccc(NC(=O)N2CCC(C(NC3CCC(c4c[nH]c5cccnc45)CC3)C(N)=O)CC2)c1 (centres unmarked) [Example 48]', 'IC50', 590),
  ('NC(=O)C(NC1CCC(c2c[nH]c3ccccc23)CC1)C1CCN(C(=O)/C=C/c2ccc(OC(F)(F)F)cc2)CC1 (centres unmarked) [Example 21]', 'IC50', 492),
  ('COC(=O)C(N[C@H]1CC[C@H](c2c[nH]c3ccccc32)CC1)C1CCN(C(=O)/C=C/c2cc(F)cc(F)c2)CC1 (some centres unmarked) [Example 24]', 'IC50', 390),
  ('NC(=O)C(NC1CCC(c2c[nH]c3ccccc23)CC1)C1CCN(C(=O)/C=C/c2ccc3c(c2)OCCO3)CC1 (centres unmarked) [Example 23]', 'IC50', 602),
  ('NC(=O)C(NC1CCC(c2c[nH]c3cccnc23)CC1)C1CCN(C(=O)Nc2ccc(Cl)c(Cl)c2)CC1 (centres unmarked) [Example 42]', 'IC50', 87);
